So I've got a bunch of molecules here, and I need their activation at 0.1 µM values.
experimentalSystem: GABAA R (α5β2γ2) (Homo sapiens, UniProt P18507+P31644)
Construct: expressed in transfected cells
Sequence (P31644 32-462): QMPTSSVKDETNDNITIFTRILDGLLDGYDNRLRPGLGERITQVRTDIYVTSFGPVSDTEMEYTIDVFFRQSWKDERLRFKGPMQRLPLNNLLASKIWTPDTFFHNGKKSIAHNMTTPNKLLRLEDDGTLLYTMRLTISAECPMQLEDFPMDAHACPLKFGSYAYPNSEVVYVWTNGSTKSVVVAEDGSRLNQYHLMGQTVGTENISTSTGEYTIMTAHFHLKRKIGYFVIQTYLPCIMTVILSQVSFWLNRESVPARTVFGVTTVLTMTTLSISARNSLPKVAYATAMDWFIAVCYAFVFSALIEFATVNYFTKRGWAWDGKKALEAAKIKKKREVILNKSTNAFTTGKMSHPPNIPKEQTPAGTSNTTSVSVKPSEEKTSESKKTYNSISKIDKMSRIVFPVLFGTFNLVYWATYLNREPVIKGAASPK
Sequence (P47870 25-512 partner limits assumed): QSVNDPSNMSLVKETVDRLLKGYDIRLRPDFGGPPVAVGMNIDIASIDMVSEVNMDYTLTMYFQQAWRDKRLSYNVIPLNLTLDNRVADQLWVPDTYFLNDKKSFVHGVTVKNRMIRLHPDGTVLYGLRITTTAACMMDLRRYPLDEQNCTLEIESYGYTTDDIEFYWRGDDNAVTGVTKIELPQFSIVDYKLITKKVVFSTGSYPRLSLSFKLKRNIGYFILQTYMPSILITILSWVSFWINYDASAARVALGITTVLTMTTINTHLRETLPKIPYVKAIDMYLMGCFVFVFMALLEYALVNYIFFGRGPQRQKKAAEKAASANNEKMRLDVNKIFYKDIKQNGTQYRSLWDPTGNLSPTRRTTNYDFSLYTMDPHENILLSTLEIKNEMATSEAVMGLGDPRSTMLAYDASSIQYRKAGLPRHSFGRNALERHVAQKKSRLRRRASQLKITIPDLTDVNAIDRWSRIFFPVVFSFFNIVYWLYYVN
Sequence (P18507 40-475): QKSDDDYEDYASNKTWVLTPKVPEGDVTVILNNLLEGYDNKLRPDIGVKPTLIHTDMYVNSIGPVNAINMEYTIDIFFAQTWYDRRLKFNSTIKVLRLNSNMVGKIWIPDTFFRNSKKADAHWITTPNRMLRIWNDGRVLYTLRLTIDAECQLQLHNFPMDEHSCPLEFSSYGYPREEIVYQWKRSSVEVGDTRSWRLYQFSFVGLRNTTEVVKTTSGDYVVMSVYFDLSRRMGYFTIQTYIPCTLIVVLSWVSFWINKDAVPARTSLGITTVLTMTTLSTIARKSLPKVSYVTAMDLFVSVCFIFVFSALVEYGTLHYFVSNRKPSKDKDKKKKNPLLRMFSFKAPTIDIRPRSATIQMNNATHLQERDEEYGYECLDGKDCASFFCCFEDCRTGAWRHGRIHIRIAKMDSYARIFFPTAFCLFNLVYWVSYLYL
test: Positive allosteric modulator activity: potentiation of EC20 GABA current in oocytes
Type: cell-based
conditions: read-out: GABA α5 Functional Data: potentiation, @ 100 nM, EC20 GABA; ranges of the column heads

# input Answer with the recorded activation at 0.1 µM for the molecule listed here: CCn1cc2c(n1)-c1cc(Cl)ccc1-n1cnc(-c3noc(C4COCCO4)n3)c1C2 (centres unmarked)
# output 5 to 20%

# input Answer with the recorded activation at 0.1 µM for the molecule listed here: Cn1cc2c(n1)-c1cc(Cl)ccc1-n1cnc(-c3nnc(C(F)(F)F)o3)c1C2
# output 20 to 50%

# input Answer with the recorded activation at 0.1 µM for the molecule listed here: Cn1cc2c(n1)-c1cc(Cl)ccc1-n1cnc(-c3noc(COC4CCCC4)n3)c1C2
# output 20 to 50%

# input Answer with the recorded activation at 0.1 µM for the molecule listed here: COc1ccc2c(c1)-c1nn(CC3CCCO3)cc1Cc1c(-c3noc(COC(C)C)n3)ncn1-2 (centres unmarked)
# output 20 to 50%

# input Answer with the recorded activation at 0.1 µM for the molecule listed here: CCn1cc2c(n1)-c1cc(OC)ccc1-n1cnc(-c3noc(COCC(F)(F)F)n3)c1C2
# output 20 to 50%

# input Answer with the recorded activation at 0.1 µM for the molecule listed here: COc1ccc2c(c1)-c1[nH]ncc1Cc1c(-c3noc(C4COCCO4)n3)ncn1-2 (centres unmarked)
# output 20 to 50%

# input Answer with the recorded activation at 0.1 µM for the molecule listed here: COCc1noc(-c2ncn3c2Cc2cn(C)nc2-c2cc(OC)ccc2-3)n1
# output 20 to 50%

# input Answer with the recorded activation at 0.1 µM for the molecule listed here: COc1ccc2c(c1)-c1nn(C3CCOC3)cc1Cc1c(-c3nc(C4CC4)no3)ncn1-2 (centres unmarked)
# output 20 to 50%

# input Answer with the recorded activation at 0.1 µM for the molecule listed here: COc1ccc2c(c1)-c1nn(Cc3ccccn3)cc1Cc1c(-c3nc(C(C)C)no3)ncn1-2
# output 20 to 50%

# input Answer with the recorded activation at 0.1 µM for the molecule listed here: Cn1cc2c(n1)-c1cc(Cl)ccc1-n1cnc(-c3noc(C(F)(F)F)n3)c1C2
# output 20 to 50%

# input Answer with the recorded activation at 0.1 µM for the molecule listed here: COc1ccc2c(c1)-c1nn(C)cc1Cc1c(-c3noc(C)n3)ncn1-2
# output 5 to 20%

# input Answer with the recorded activation at 0.1 µM for the molecule listed here: COc1ccc2c(c1)-c1nn(C)cc1Cc1c(-c3noc(C4COC4)n3)ncn1-2
# output 20 to 50%

# input Answer with the recorded activation at 0.1 µM for the molecule listed here: COc1ccc2c(c1)-c1nn(C)cc1Cc1c(-c3nc(C(C)C)no3)ncn1-2
# output 5 to 20%

# input Answer with the recorded activation at 0.1 µM for the molecule listed here: Cn1cc2c(n1)-c1cc(Cl)ccc1-n1cnc(-c3nc(COC4COC4)co3)c1C2
# output > 50%

# input Answer with the recorded activation at 0.1 µM for the molecule listed here: COc1ccc2c(c1)-c1nn(C)cc1Cc1c(-c3noc([C@@H]4CCOC4)n3)ncn1-2
# output 5 to 20%

# input Answer with the recorded activation at 0.1 µM for the molecule listed here: COc1ccc2c(c1)-c1nn(C3CCOC3)cc1Cc1c(-c3noc(COCC(F)(F)F)n3)ncn1-2 (centres unmarked)
# output 20 to 50%

# input Answer with the recorded activation at 0.1 µM for the molecule listed here: COc1ccc2c(c1)-c1nn(C)cc1Cc1c(-c3noc(C4COCCO4)n3)ncn1-2 (centres unmarked)
# output 20 to 50%
